Target: Leishmonia pneumophila virulence Cyclosporin A receptor with 18 kDa molecular weight, LpCyp18 (Legionella pneumophila subsp. pneumophila)
Sequence (Q5ZRZ4 1-164 limits assumed): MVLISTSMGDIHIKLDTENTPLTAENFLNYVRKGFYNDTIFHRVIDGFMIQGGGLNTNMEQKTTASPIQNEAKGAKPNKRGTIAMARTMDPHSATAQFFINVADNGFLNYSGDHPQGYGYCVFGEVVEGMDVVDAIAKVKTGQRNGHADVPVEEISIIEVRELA
OUTCOME MEASURE: IC50

In plain terms, N#CCCNC(=S)Nc1ccc([N+](=O)[O-])cc1 has a documented IC50 of > 100 µM

----------
Biological target: Bacterial Juglon sensitive non proteolytic enzyme, EcParv (Escherichia coli, UniProt P0A9L5)
Sequence (P0A9L5 1-93): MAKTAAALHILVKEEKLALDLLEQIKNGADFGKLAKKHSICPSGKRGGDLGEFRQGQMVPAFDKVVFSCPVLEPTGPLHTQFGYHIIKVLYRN
OUTCOME MEASURE: IC50

In plain terms, N#CCCNC(=S)Nc1ccc([N+](=O)[O-])cc1 [Compound 4] has a documented IC50 of 10 to 50 µM
